- System: inner membrane of E. coli
- assaySummary: G-GECO1 fluorescence screening of the 3xNNK S2168 pinholin library in microtiter plates (Example 12)
- particulars: sigmoid fit with equation 1 (high d = low slope); pCTRL2.T7.100.sRBS library, G-GECO1
reportedEndpoint: Slope [d]
Enter a number only.

Reported Slope [d] for Clone P14C11 (protein, Mutant of S21-71 anti-pinholin of bacteriophage P21) MNFEDKISTGIAYGTSAGSAGYWFLQWLDQVSPSQWAAIGVLGSLVLGFLTYLTNLYFKIREDRRKAARGE : what is it?
6.835

Reported Slope [d] for Clone P3G3 (protein, Mutant of S21-71 anti-pinholin of bacteriophage P21) MWRGDKISTGIAYGTSAGSAGYWFLQWLDQVSPSQWAAIGVLGSLVLGFLTYLTNLYFKIREDRRKAARGE : what is it?
47.62
